System: K4 kissing-loop RNA reporter;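 also: bound reporter read as fluorescence of individual clusters on recovered sequencing chips by microscopy, with normalized cluster intensities fitted with a binding model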
METHOD: apparent KD of K4 kissing-loop reporter; higher = weaker reporter binding
TEST PARAMETERS: Eterna round: R107; input ligand: FMN 200 uM
MEASURE: apparent KD of K4 kissing-loop reporter (nM)
Give the number; nM is assumed, so skip it.

q: # apparent KD of K4 kissing-loop reporter lookup, item ACCAUCAAAGAUGGCCAGGACACCGCUGAUACCAGAGUGAAAACACUCCCUUGGCAGCAGGUGAGUGAUGUUCACAGUCCAUGGA [Omel KL Theo A SS B v2]
a: 566

q: Same for UAACCGCAGAAAGAUACCAGUGAGUGAUGUUCCUCGAUCCUGUGGUUCAUUCUCUUUACCCACCCUUGGCAGCUUCAAAUGUGAC [theeternabot_exclusion_KL_Theo_B_4]
a: 831

q: Now consider UACAGGGAUAGUGAUGUUAUCCCAUGUGAUACCAGUGCCAUCCAACACCCUUGGCAGCAUACGGGCAGUGAUGUUGUUCUUGGUU [Exclusion Theophylline A GF 13] and answer again.
a: 96.1

q: Now the sequence AAUAUAGUGAUGUUAUAUAAGAAGGAGUUACGAGGACCGGUACGGCCGCCACUCGAAACGAGUGAGGGCCCGGGAGAUUGGGCCC [SSTryptA.G]
a: 339

q: Same again, this time with AGAAUAAUAAAUUUGGAGUGAUGUUCCGGACGAGGACCGGUACGGCCGCCACUCGAAAGCAGUCUGCGAAAGCAGACUGCAAGGA [Tesla SS Tryp A 1]
a: 817

q: Could you do the same for GCCAUCUACUAAGGAUAUUAAGUCAAUAUUUGUGGUGCCAUCUGUCGUUCAGGGCAGUGAUGUUGCUAAGAAGGUAGUCUGUCGG [theeternabot_exclusion_KL_FMN_B_39] , please?
a: 757

q: Try this sequence next: UUUAUAAAGUCGGCCGCCACUGGAUUUAUAUUUGUUUAAUCUGGAUCAAAGUGAUGUUUUGAGUCCAGGACCGGGACAUUUGUUA [JR_ExcTryptoB_Sub002]
a: 125

q: Same thing, different sequence: GUGGUACAGGCGGCCGCCACUAGUGAUGUUAGUGUUAGAAGAUAUAGUAUAUAUCGGCAUUUGUUUAGGACCGGGCCUGGUGGAG [aqzacmullin]
a: 209

q: Can you handle AGUACAGACACGGCCGCCACUCAGAAGAAGACAGUAGUGAUGUUACUGAUGGUGAGAAUAAUAAAGAGGACCGGGUGUUGUGCAA [#04 K4 Tryptophan B Same State] next?
a: 222

q: Can you check ACGUAGUUCUAGGAUACCAGCCAAGGAGCGCAGGACAAAAGUCCUGCCGCCAGUGAUGUUGGCCCUUGGCAGCCUAGAACUACGA [Omei KL Theo B Exc B v1] next?
a: 193

q: Consider next the sequence UGUGGAGAAUAUGAUACCAGCAGUGAGAGAGAGGAAGUAUAGUGAUGUUAUAUGAGAGAAUGCCCUUGGCAGCAUAUGAAGAAGG [SSTheophylB.E] in the same way.
a: 174

q: Now this one: GGACUACUAUGUCCCAUACAAACAAGAGAUACCAGCCAUCAUAGAGGCCCUUGGCAGCUCAUAUAAUCCAGUGAUGUUGGAUUUC [Beveus]
a: 150
